# Tested on: SETFA
# EXPERIMENT: Post-emergence herbicidal activity, glasshouse pot test; further: key: 5=total damage to plant; 0=no damage to plant
# Type: in vivo
# APPLIED_CONDITIONS: Setaria faberi; application post-emergence; rate 1000 g/Ha; evaluated after 13 days
OBSERVABLE: Post-emergence herbicidal activity SETFA (damage score 0-5)

{"COMPOUND": "COCN1C(=O)N(c2cc(C(F)(F)F)ccn2)C(O)C1C (centres unmarked) [Compound A76]", "OBSERVED_RESULT": 4}
{"COMPOUND": "COc1ncc(-c2cnc(N3C(=O)N(C)C(C)C3O)cc2C(F)(F)F)cn1 (centres unmarked) [Compound A22]", "OBSERVED_RESULT": 5}
{"COMPOUND": "CN1C(=O)N(c2cc(C(F)(F)F)ccn2)C(O)C1CC(F)(F)F (centres unmarked) [Compound A68]", "OBSERVED_RESULT": 0}
{"COMPOUND": "Cc1ccnc(N2C(=O)N(C)C(C)C2O)c1 (single isomer, unassigned) [Compound A27]", "OBSERVED_RESULT": 3}
{"COMPOUND": "CN1C(=O)N(c2cc(C(F)(F)F)ccn2)C(O)C1OCC(F)(F)F (centres unmarked) [Compound A39]", "OBSERVED_RESULT": 5}
